- Protocol: Cytotoxicity against human HL7702 cells after 48 hrs by MTT assay
- Format: cell-based
- Measurement conditions: L02, 48 h
Experimental readout: IC50 (µM)
Give bare numbers, in µM.

Task: Please look up its IC50: C[C@@H]1[C@@H]2CC(=O)O[C@@H]2C[C@]1(C)O
Output: 20.7
